Lab note: IC50 readings collected with VEGFR2 (Homo sapiens) for the following compounds.
Sequence (P35968 20-1356): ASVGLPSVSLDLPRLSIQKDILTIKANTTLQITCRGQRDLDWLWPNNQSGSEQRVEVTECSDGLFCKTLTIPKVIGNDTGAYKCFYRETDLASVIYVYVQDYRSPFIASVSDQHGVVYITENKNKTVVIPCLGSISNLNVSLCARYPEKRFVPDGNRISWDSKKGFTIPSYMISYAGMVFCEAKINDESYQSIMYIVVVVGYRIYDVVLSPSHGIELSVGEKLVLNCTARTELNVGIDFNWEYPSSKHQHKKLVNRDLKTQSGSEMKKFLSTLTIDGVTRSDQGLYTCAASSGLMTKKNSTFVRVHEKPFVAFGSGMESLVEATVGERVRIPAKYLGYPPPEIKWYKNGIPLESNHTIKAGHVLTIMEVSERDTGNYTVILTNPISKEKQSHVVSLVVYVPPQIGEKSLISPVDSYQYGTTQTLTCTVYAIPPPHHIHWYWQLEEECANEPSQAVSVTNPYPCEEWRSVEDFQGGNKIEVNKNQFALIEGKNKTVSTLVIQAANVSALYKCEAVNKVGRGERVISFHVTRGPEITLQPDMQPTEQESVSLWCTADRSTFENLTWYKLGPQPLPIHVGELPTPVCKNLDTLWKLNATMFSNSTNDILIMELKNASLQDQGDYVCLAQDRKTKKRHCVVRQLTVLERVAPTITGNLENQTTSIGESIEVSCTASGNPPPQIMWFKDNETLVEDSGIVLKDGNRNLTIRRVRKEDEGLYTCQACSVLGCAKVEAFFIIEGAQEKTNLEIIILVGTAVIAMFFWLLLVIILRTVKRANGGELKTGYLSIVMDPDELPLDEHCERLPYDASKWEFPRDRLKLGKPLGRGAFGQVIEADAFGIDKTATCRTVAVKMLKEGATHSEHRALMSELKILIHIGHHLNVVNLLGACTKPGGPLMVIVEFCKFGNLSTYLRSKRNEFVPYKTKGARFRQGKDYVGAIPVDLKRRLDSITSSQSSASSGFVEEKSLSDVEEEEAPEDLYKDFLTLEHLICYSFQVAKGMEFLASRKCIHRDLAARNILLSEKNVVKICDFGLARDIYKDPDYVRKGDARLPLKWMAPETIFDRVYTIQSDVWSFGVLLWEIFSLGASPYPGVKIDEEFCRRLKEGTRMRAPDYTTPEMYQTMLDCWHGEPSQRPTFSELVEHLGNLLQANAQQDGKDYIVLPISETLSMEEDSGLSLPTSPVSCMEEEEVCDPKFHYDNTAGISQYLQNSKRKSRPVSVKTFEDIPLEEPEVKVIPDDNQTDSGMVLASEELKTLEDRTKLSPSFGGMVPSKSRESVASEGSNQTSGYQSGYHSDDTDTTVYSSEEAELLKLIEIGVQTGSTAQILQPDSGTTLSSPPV

Here is how some compounds turned out for IC50.
compound=COc1cc2nccc(Oc3ccc4c(C(=O)N5CC[C@H](O)C5)coc4c3)c2cc1C(N)=O subject_of_test="VEGFR2 (Homo sapiens)" meas_value="200 to 1000 nM"
compound=CCNC(=O)c1coc2cc(Oc3ccnc4cc(OC)c(C(N)=O)cc34)ccc12 subject_of_test="VEGFR2 (Homo sapiens)" meas_value="< 50 nM"
compound=COc1cc2nccc(Oc3ccc(NC(=O)C4(C(=O)NC5CC5)CC4)c(Cl)c3)c2cc1C(N)=O subject_of_test="VEGFR2 (Homo sapiens)" meas_value="200 to 1000 nM"
compound=COc1cc2nccc(Oc3ccc4nc(NC5CCC5)sc4c3)c2cc1C(N)=O subject_of_test="VEGFR2 (Homo sapiens)" meas_value="200 to 1000 nM"
compound="COc1cc2nccc(Oc3ccc(NC(=S)NC4CCOC4=O)c(Cl)c3)c2cc1C(N)=O (centres unmarked)" subject_of_test="VEGFR2 (Homo sapiens)" meas_value="200 to 1000 nM"
compound=COc1cc2nccc(Oc3ccc(NC(=O)N4CCCC4)c(Cl)c3F)c2cc1C(N)=O subject_of_test="VEGFR2 (Homo sapiens)" meas_value="50 to 200 nM"

For the compound `Cn1cncc1-c1ccc2c(Oc3ccc(NC(=O)NC4CC4)c(Cl)c3F)ccnc2c1` , what IC50 is on record? < 50 nM

# iterate: `Cn1cnc(-c2ccc3c(Oc4ccc5c(C(=O)NC6CC6)coc5c4)ccnc3c2)c1` < 50 nM

# iterate: `Cn1cncc1-c1ccc2c(Oc3ccc(NC(=S)NC4CC4)c(Cl)c3)ccnc2c1` < 50 nM

# iterate: `COc1cc2nccc(Oc3cc4occ(C(=O)NC5CC5)c4cc3F)c2cc1C(N)=O` < 50 nM

# iterate: `COc1cc2nccc(Oc3ccc(NC(=O)N4CC[C@@H](F)C4)c(Cl)c3F)c2cc1C(N)=O` 200 to 1000 nM

# iterate: `COc1cc2nccc(Oc3ccc(NC(=S)N4CC[C@H](O)C4)c(Cl)c3F)c2cc1C(N)=O` < 50 nM

# iterate: `COc1cc2nccc(Oc3ccc(-c4c[nH]c(C(C)C)n4)c(Cl)c3)c2cc1C(N)=O` 200 to 1000 nM

# iterate: `COc1cc2nccc(Oc3ccc(NC(=S)N(C)C)c(Cl)c3)c2cc1C(N)=O` 50 to 200 nM
